tested on: A549-ACE2 infected with SARS-CoV-2; test: SARS-CoV-2 infection rate relative to DMSO; higher = more infection; details: 3 µM; 24 h
Listed here are compounds together with their documented SARS-CoV-2 infection rate.

| compound | test-target | SARS-CoV-2 infection rate (%) |
| --- | --- | --- |
| CN1CCN(CCCN2c3ccccc3Sc3ccc(Cl)cc32)CC1 | A549-ACE2 infected with SARS-CoV-2 | 29 |
| C1CCC(C(CC2CCCCN2)C2CCCCC2)CC1 (centres undefined) | A549-ACE2 infected with SARS-CoV-2 | 36 |
| Cc1ccc(C(=O)Nc2cccc(C(F)(F)F)c2)cc1Nc1nc(-c2cccnc2)nc2c1cnn2C | A549-ACE2 infected with SARS-CoV-2 | 68 |
| COc1ccc2cc1Oc1ccc(cc1)C[C@H]1c3cc(c(OC)cc3CCN1C)Oc1c(OC)c(OC)cc3c1[C@H](C2)N(C)CC3 | A549-ACE2 infected with SARS-CoV-2 | 23 |

* * *

system: U2OS; assay: drug sensitivity score (DSS) for viability; higher = more toxic; extreme values may be limits of the assay; settings: 72 h
The compounds listed here are annotated with their drug sensitivity score.
measured-quantity: drug sensitivity score

| compound | measured-quantity | readout-value |
| --- | --- | --- |
| O=C(Nc1cc(C(F)(F)F)cc(C(F)(F)F)c1)Nc1c(Br)cc(Br)cc1-c1nnn[nH]1 | drug sensitivity score | 0 |
| COc1cc([C@@H]2c3cc4c(cc3[C@@H](O[C@@H]3O[C@@H]5CO[C@@H](c6cccs6)O[C@H]5[C@H](O)[C@H]3O)[C@H]3COC(=O)[C@H]23)OCO4)cc(OC)c1O [teniposide] | drug sensitivity score | 9.4 |
| O=c1cc(N2CCOCC2)oc2c(-c3ccccc3)cccc12 | drug sensitivity score | 0 |
| c1nc(CC2CCNCC2)c[nH]1 [immepip] | drug sensitivity score | 0 |

* * *

system: HepG2; experiment: cell viability relative to DMSO; higher = less toxic; details: 72 h; 100 nM
measured-quantity: cell viability (%)

| compound | measurement-unit | readout-value |
| --- | --- | --- |
| CC(C)[C@H](CO)Nc1nc(Nc2cccc(Cl)c2)c2ncn(C(C)C)c2n1 [purvalanol-A] | % | 100 |
| O=C(O)CCCCCCNC1c2ccccc2CCc2ccccc21 [amineptine] | % | 93 |
| COc1ccc(CCN(C)CCCC(C#N)(c2cc(OC)c(OC)c(OC)c2)C(C)C)cc1OC (configuration not stated) [gallopamil] | % | 98.3 |
| CN1C(CCl)Nc2cc(Cl)c(S(N)(=O)=O)cc2S1(=O)=O (configuration not stated) [methyclothiazide] | % | 106 |
| Cc1nnc2ccc(-c3cccc(C(F)(F)F)c3)nn12 | % | 107 |
| CC(C)NC[C@@H](O)c1ccc(O)c(O)c1 (racemic) [isoprenaline] | % | 96.5 |
| Clc1ccc(COC(Cn2ccnc2)c2ccc(Cl)cc2Cl)cc1 (configuration not stated) [econazole] | % | 102 |
| O=C(O)Cc1cccc2c(=O)cc(-c3ccccc3)oc12 [mitoflaxone] | % | 93.2 |
| CCCn1c(=O)c2[nH]c(-c3cnn(Cc4cccc(C(F)(F)F)c4)c3)nc2n(CC)c1=O [GS-6201] | % | 104 |
| COc1cc2ncnc(Nc3ccc(O)c(Br)c3)c2cc1OC [WHI-P154] | % | 101 |
| C[C@@H]1CC[C@H]2C(C)(C)[C@H]3C[C@@]12CC[C@@]3(C)O [cedrol] | % | 98 |
| O=C(NCCCN1CCOCC1)c1cnn2c(-c3ccccc3)cc(-c3ccccc3)nc12 [reversan] | % | 92.6 |
| CCC1(CC)C(=O)NC(=O)N(C)C1=O [metharbital] | % | 95.9 |
| CN1CCN(C(=O)c2nc3ccc(Cl)cc3[nH]2)CC1 | % | 96.7 |
| COC(=O)Nc1ccc2[nH]cc(CCNC(C)=O)c2c1 | % | 98.3 |
| CNCCC=C1c2ccccc2C=Cc2ccccc21 [norcyclobenzaprine] | % | 102 |
| N[C@@H]1CCCCN(c2c(F)cc3c(=O)c(C(=O)O)cn(C4CC4)c3c2Cl)C1 [besifloxacin] | % | 108 |
| NCC1OC(C23CC4CC(CC(C4)C2)C3)Cc2c1ccc(O)c2O (configuration not stated) | % | 103 |
| CCOC(=O)Nc1ccc2c(c1)N(C(=O)CCN(CC)CC)c1ccccc1S2 [ethacizin] | % | 80.8 |
| O=C(O)CCC(=O)C(=O)O [2-oxoglutaric-acid] | % | 91.4 |
| CN(C(=O)/C=C/c1ccoc1)[C@@H]1CC[C@@]2(O)[C@H]3Cc4ccc(O)c5c4[C@@]2(CCN3CC2CC2)[C@H]1O5 [nalfurafine] | % | 95.5 |
| CN(CCOc1ccc(CC2SC(=O)NC2=O)cc1)c1ccccn1 (configuration not stated) [rosiglitazone] | % | 93.5 |
| O=C(Nc1cc(C(F)(F)F)cc(C(F)(F)F)c1)Nc1c(Br)cc(Br)cc1-c1nnn[nH]1 [NS-5806] | % | 106 |
| O=C(NC1CCNCC1)[C@@H]1CC[C@@H]2CN1C(=O)N2OS(=O)(=O)O [relebactam] | % | 94.1 |
| Cc1nn(-c2ccccc2)c(C)c1/C=N/N1CCN(Cc2ccccc2)CC1 [SANT-1] | % | 87 |
| CCOC(=O)c1c[nH]cn1 [C-751] | % | 95.6 |
| COc1cc(/C=C(\C#N)C(N)=O)cc(CSc2nc3ccccc3s2)c1O [tyrphostin-AG-825] | % | 103 |
| C=CC(=O)N1CCN(C(=O)CNc2cc(I)c(Cl)cc2O)CC1 [K-Ras(G12C)-inhibitor-12] | % | 88.2 |
| CCCCCCCNS(=O)(=O)c1cccc2c(Cl)cccc12 [SC-10] | % | 108 |
| c1nc(CC2CCNCC2)c[nH]1 [immepip] | % | 103 |
| CC(=O)OC[C@H]1O[C@@](COC(C)=O)(O[C@H]2O[C@H](COC(C)=O)[C@@H](OC(C)=O)[C@H](OC(C)=O)[C@H]2OC(C)=O)[C@@H](OC(C)=O)[C@@H]1OC(C)=O [sucrose-octaacetate] | % | 102 |
| O=C(O)c1ccccc1NC(=O)N1CCC(c2ccccc2C(F)(F)F)CC1 [A-1120] | % | 107 |
| O=S(=O)(NCCCCCCc1ccccc1)c1cccc2c(Cl)cccc12 [SC-9] | % | 103 |
| COc1cc(O)c(C(=O)c2ccccc2)cc1S(=O)(=O)O [sulisobenzone] | % | 99.8 |
| COc1cc(N2CCOCC2)ccc1Nc1ncc(Cl)c(Nc2ccccc2NS(C)(=O)=O)n1 | % | 94.7 |
| Cc1cccn2c(=O)c(/C=C(\C#N)c3nc4ccccc4s3)c(Oc3ccc(F)cc3)nc12 | % | 100 |
| C[n+]1cc2c3c(ccc2c2ccc4cc5c(cc4c21)OCO5)OCO3 [sanguinarium-chloride] | % | 96.7 |

* * *

test system: U2OS; experiment: cell viability relative to DMSO; higher = less toxic; details: 72 h; 1000 nM

| compound | cell viability, % |
| --- | --- |
| CO[C@H]1/C=C/O[C@@]2(C)Oc3c(C)c(O)c4c(O)c(c5c(nc6cc(C)ccn65)c4c3C2=O)NC(=O)/C(C)=C\C=C\[C@H](C)[C@H](O)[C@@H](C)[C@@H](O)[C@@H](C)[C@H](OC(C)=O)[C@@H]1C [rifaximin] | 93.3 |
| O=S(=O)(O)CCSSCCS(=O)(=O)O [dimesna] | 104 |
| COc1ccc(CCN(C)CCCC(C#N)(c2cc(OC)c(OC)c(OC)c2)C(C)C)cc1OC (stereo not drawn) [gallopamil] | 97.3 |
| NS(=O)(=O)NCc1csc2ccccc12 | 104 |
| Cc1nn(-c2ccccc2)c(C)c1/C=N/N1CCN(Cc2ccccc2)CC1 [SANT-1] | 99.5 |
| c1ccc(CCCN2CCN(CCOC(c3ccccc3)c3ccccc3)CC2)cc1 | 98.1 |
| CONC(=N)c1ccc(-c2ccc(-c3ccc(C(=N)NOC)cc3)o2)cc1 [pafuramidine] | 102 |
| O=C(O)c1cc(O)c2ccc(Cl)cc2n1 [7-chlorokynurenic-acid] | 94.3 |

* * *

system: Vero E6; assay: cell viability relative to DMSO; higher = less toxic; settings: 72 h; 1000 nM
measured-quantity: cell viability (%)

| compound | measured-quantity | measurement-unit | readout-value |
| --- | --- | --- | --- |
| C[C@]12CC/C(=N\OCCN)C[C@@H]1C(=O)C[C@@H]1[C@@H]2CC[C@]2(C)C(=O)CC[C@@H]12 | cell viability | % | 97.9 |
| COc1cc(Br)c(S(=O)(=O)Nc2ccc(Cl)c(O[C@@H]3CCN(C)C3)c2)cc1OC | cell viability | % | 97.8 |
| Cn1ncc(Cl)c1-c1cc(C(=O)N[C@H](CN)Cc2cccc(F)c2)sc1Cl | cell viability | % | 93.6 |
| CC(C)NC[C@@H](O)c1ccc(O)c(O)c1 (racemic) | cell viability | % | 107 |
| COc1cc2c(cc1O)CC[C@@H]1[C@@H]2CC[C@]2(C)[C@@H](O)CC[C@@H]12 | cell viability | % | 94.8 |
| COc1cc(C2Oc3cc([C@H]4Oc5cc(O)cc(O)c5C(=O)[C@@H]4O)ccc3OC2CO)ccc1O (stereo partly drawn) | cell viability | % | 103 |
| CCc1cc2c(cc1CC)CC(NC[C@H](O)c1ccc(O)c3[nH]c(=O)ccc13)C2 | cell viability | % | 96.3 |
| Clc1ccc(COC(Cn2ccnc2)c2ccc(Cl)cc2Cl)c(Cl)c1 (stereo not drawn) | cell viability | % | 102 |

The origin of these recorded values is the supplement of paper PMC13380429.
